- Test system: SK-OV-3 ovarian
- ASSAY COMMENT: NCI tumour cell line growth inhibition, 48 h
*1 amine or outer side, *2 acyl side, *3 side chain or, on linkers, in order; H or OH if unused. Where a SMILES comes first, the peptide text is derived from it. [ ]: non-standard residue; d: D form. The star is where a group is joined. ξ: configuration not given here. X27 = O=C([C@H]1CCC[C@H]1N[*:1])[*:2]; ξW = NC(Cc1c[nH]c2ccccc12)C(=O)O; ξF = NC(Cc1ccccc1)C(=O)O; Boc = CC(C)(C)OC(=O)*; ξK = NCCCCC(N)C(=O)O; ξT = CC(O)C(N)C(=O)O; tBu = CC(C)(C)*

COMPOUND | ASSAY TARGET | TGI
OC(c1cc(-c2cccc(Cl)c2)nc2ccccc12)C1CCCCN1 (centres undefined) | SK-OV-3 ovarian | 12.2 µM
Cn1c(NNc2ccccc2)cc(=O)[nH]c1=O | SK-OV-3 ovarian | > 100 µM
O=c1[nH]nc(Cc2ccc(Cl)cc2)n1/N=C/c1ccco1 | SK-OV-3 ovarian | > 100 µM
COc1ccc(NC(=S)N/N=C\c2ccc(NC(C)=O)cc2)cc1 | SK-OV-3 ovarian | > 100 µM
CCCCNc1nc2ccccc2c2c1ncn2CC(C)C | SK-OV-3 ovarian | > 100 µM
CC(OC(C)(C)C)C1NC(=O)C(CCCCNC(=O)OC(C)(C)C)NC(=O)C(Cc2c[nH]c3ccccc23)NC(=O)C(Cc2ccccc2)NC(=O)[C@H]2CCC[C@H]2NC(=O)C(Cc2ccccc2)NC1=O (some centres undefined) (cyclo([X27][ξF][ξW][ξK](Boc)[ξT](tBu)[ξF])) | SK-OV-3 ovarian | > 100 µM
Cn1c2ccccc2n2c3ncccc3c(=NCCCC(=O)O)c(C#N)c12 | SK-OV-3 ovarian | > 100 µM
COc1cccc(CCC2CCCN(c3cc(C)nc(N)n3)C2)c1 (centres undefined) | SK-OV-3 ovarian | 11.7 µM
COc1cc2nccc(Oc3ccc(NC(=O)NC4CC4)c(Cl)c3)c2cc1C(N)=O | SK-OV-3 ovarian | 94.6 µM

====

# TGI listing for each entry below
- System: SK-MEL-5 melanoma
- ASSAY COMMENT: NCI tumour cell line growth inhibition, 48 h
MEASURED PROPERTY: TGI

COMPOUND | EXPERIMENTAL VALUE
CC(=O)Nc1ccc(NS(=O)(=O)c2ccc3nc(C)n(NS(=O)(=O)c4ccc(NC(C)=O)cc4)c(=O)c3c2)cc1 | > 100 µM
c1ccc(N2N=C(c3cccc(Nc4ccncc4)c3)CC2c2ccc3c(c2)OCO3)cc1 (stereo not given) | 3.17 µM
NC1=CC(=O)c2cccnc2C1=O | 2.95 µM
COc1cccc2ccc(C(=O)c3ccccc3)nc12 | > 100 µM
CC(=O)OCC(C)C1=C(OC(C)=O)C(=O)C2(C)C/C=C(/C)CC/C=C(\C)CCC(OC(C)=O)C(C)CCC12 (stereo not given) | 30.2 µM
COC(=O)C1=Cc2cc(OC)c(OC)c(OC)c2[C@H](c2cc(OC)c(OC)c(OC)c2)C1C(=O)OC (stereo not given in full) | > 100 µM
CN(C)c1ccc(/C=C/c2ccnc3c(O)cccc23)cc1 | 3.05 µM
C[n+]1c(/C=C/c2c[nH]c3ccccc23)ccc2ccccc21 | 19.6 µM
N#Cc1cnc(-n2[nH]c3c(c2=O)CCCC3)[nH]c1=O | > 100 µM
Nc1c(C(=O)c2ccc(-c3cccnc3)cc2)cnn1-c1ccc(F)cc1 | > 25 µM
